# ASSAY_DETAILS: in vivo
# CONDITION_DESCRIPTION: mouse, ip
Counter-ions that a name gives are not always drawn.
REPORTED_METRIC: LD50 (mg/kg)
Please respond with the number in mg/kg and leave the unit unwritten.

### Prompt Give LD50 for CNCCCOc1ccccc1Cc1ccccc1 [hydrochloride]
### Response 160

New cases:
### Prompt Give LD50 for CN(C)CCC=C1c2ccccc2CCc2ccccc21 [Amitriptyline, reference compound]
### Response 65
